Observed Property: melting point

C#CC(C)(C)Oc1ccc(-c2ccnc(C)c2)cc1    37 to 40 °C
CCCCONC(=O)c1nc(-c2ccc(Cl)c(OC)c2F)cc(N)c1Cl    130 to 132 °C
O=C(O)C1c2ccccc2Cc2ccccc21    139 °C
CC1(C)CCC(C)(C)c2cc(-c3cc(-c4ccc(C(=O)OCc5ccccc5)cc4)ccc3O)ccc21    90 to 91 °C
COCCOCOc1c(C(C)(C)C)cc(-c2noc(=O)[nH]2)cc1C(C)(C)C    112 to 114 °C

Input line: Identify measured melting point corresponding to Cc1c(-c2cc(C(=O)OC(C)C)c(Cl)cc2F)nn(C)c1C(F)(F)F
Output line: 72 °C

Input line: Identify measured melting point corresponding to O=c1c2ccccc2nc(-c2cc(-c3ccccc3)c(N3CCOCC3)s2)n1-c1ccc(Cl)cc1
Output line: 223 to 224 °C

Input line: Provide measured melting point value, entry: CS(=O)(=O)c1c2ccccc2c(C=O)c2ccccc12
Output line: 216 to 217 °C

Input line: State, in one line, measured melting point of Oc1c(CN2CCCC2)cc(Nc2ccccn2)cc1CN1CCCC1
Output line: 158 to 159 °C

Input line: Name the recorded melting point of the item CONS(=O)(=O)c1cccc(C)c1 in your answer.
Output line: 90 to 92 °C
